Ref: PubChem BioAssay

- Assay Method Text: inhibition of 3D7 malaria parasite growth – strain 3D7 (AID 2306);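 also: 0% = DMSO wells and 100% = chloroquine plus artemisinin control wells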
- Test Conditions: P. falciparum 3D7 erythrocytic growth, LDH absorbance, 72 h; at 2 µM; active compounds read high
For each entry below, report its growth inhibition value.
Numbers only, in %.

Molecule: Cc1cccc2[nH]c(-c3ccc(-c4cccc(CN5CCCC(O)C5)c4)s3)nc12 (stereo not given)
Recorded Endpoint: growth inhibition
Test Value: 95
--
Molecule: Oc1cc(Nc2ccnc3cc(-c4ccc(CN5CCCCC5)o4)ccc23)c(Cl)cc1F
Recorded Endpoint: growth inhibition
Test Value: 101
--
Molecule: c1csc(-c2nc(N3CCCC3)ncc2-c2ccsc2)n1
Recorded Endpoint: growth inhibition
Test Value: 89
--
Molecule: CN1CCC(NCc2ccc(S(=O)(=O)Nc3ccc(Oc4cccc(Cl)c4)cc3)cc2)CC1
Recorded Endpoint: growth inhibition
Test Value: 99

Value sought for every listed molecule: growth inhibition.
1. Cc1ccc(S(=O)(=O)N(C)c2ccccc2C(=O)Nc2ccccc2Oc2ccccc2)cc1
2. O=C(NCc1ccccc1)c1nn(CCCN2CCC(N3CCCC3)CC2)cc1-c1ccc(Cl)c(Cl)c1

Reply |
98
103
